Target: HLA-A*02:16
Assay: IEDB peptide-MHC binding, purified MHC/direct/fluorescence; filed as Kd, often an IC50 or EC50 that approximates it; bounds were set here for any values at or beyond the usual limits of such assays
Details: source organism: Entamoeba histolytica HM-1:IMSS
pKd: −log10 of the molar value.
measurement_label: pKd

| ordered_residues | result |
| --- | --- |
| FIILSTGKY | ≤ 4.70 |

====

Target: HLA-B*46:01
Assay: IEDB peptide-MHC binding, purified MHC/direct/fluorescence; filed as Kd, often an IC50 or EC50 that approximates it; bounds were set here for any values at or beyond the usual limits of such assays
Conditions: source organism: Bacillus anthracis str. A0488
pKd: −log10 of the molar value.

| ordered_residues | experimental_target | pKd |
| --- | --- | --- |
| WDAYIPHYV | HLA-B*46:01 | ≤ 4.70 |

====

Each entry below carries its recorded Kd.
Molecular target: HLA-A*26:01
Assay: IEDB peptide-MHC binding, purified MHC/direct/fluorescence; filed as Kd, often an IC50 or EC50 that approximates it; bounds were set here for any values at or beyond the usual limits of such assays
Settings: source organism: Vibrio cholerae
measurement_label: Kd

| ordered_residues | result |
| --- | --- |
| SVMPAWQEK | ≥ 20 µM |
| GKFFAQAFL | ≥ 20 µM |

====

Target: HLA-A*03:01
Assay: IEDB peptide-MHC binding, purified MHC/direct/fluorescence; filed as Kd, often an IC50 or EC50 that approximates it; bounds were set here for any values at or beyond the usual limits of such assays
Details: source organism: Giardia intestinalis
pKd: −log10 of the molar value.
Each entry below carries its recorded pKd.

| ordered_residues | pKd |
| --- | --- |
| GYTPGQQFY | ≤ 4.70 |
| DYAMHGTVF | ≤ 4.70 |

====

Molecular target: HLA-A*01:01
Experiment: IEDB peptide-MHC binding, purified MHC/competitive/fluorescence; filed as Kd, often an IC50 or EC50 that approximates it; bounds were set here for any values at or beyond the usual limits of such assays
Settings: source organism: Influenza A virus (A/Yokohama/22/2002(H1N2))
pKd: −log10 of the molar value.

| ordered_residues | experimental_target | pKd |
| --- | --- | --- |
| WTGMVDGWY | HLA-A*01:01 | 7.99 |

====

Target: HLA-A*03:01
Test: IEDB peptide-MHC binding, purified MHC/direct/fluorescence; filed as Kd, often an IC50 or EC50 that approximates it; bounds were set here for any values at or beyond the usual limits of such assays
Conditions: source organism: Salmonella enterica

| ordered_residues | Kd |
| --- | --- |
| RPQLGVGDV | ≥ 20 µM |

====

Target: HLA-B*15:01
Assay: IEDB peptide-MHC binding, purified MHC/direct/fluorescence; filed as Kd, often an IC50 or EC50 that approximates it; bounds were set here for any values at or beyond the usual limits of such assays
Conditions: source organism: Cryptosporidium parvum
pKd: −log10 of the molar value.
measurement_label: pKd

| ordered_residues | result |
| --- | --- |
| NTSTCFQEY | 6.23 |

====

Biological target: HLA-B*58:01
Assay: IEDB peptide-MHC binding, purified MHC/direct/fluorescence; filed as Kd, often an IC50 or EC50 that approximates it; bounds were set here for any values at or beyond the usual limits of such assays
Settings: source organism: Homo sapiens
Each entry below carries its recorded Kd.

| ordered_residues | experimental_target | Kd (nM) |
| --- | --- | --- |
| MCFHQHLMY | HLA-B*58:01 | 937 |
| KSDLQPPNY | HLA-B*58:01 | 220 |

====

Target: HLA-A*26:01
Assay: IEDB peptide-MHC binding, purified MHC/direct/fluorescence; filed as Kd, often an IC50 or EC50 that approximates it; bounds were set here for any values at or beyond the usual limits of such assays
Settings: source organism: Pseudomonas aeruginosa UCBPP-PA14

| ordered_residues | Kd |
| --- | --- |
| RTGTRLLGR | ≥ 20 µM |

====

Each entry below carries its recorded Kd.
Target: HLA-A*29:02
Assay: IEDB peptide-MHC binding, purified MHC/competitive/radioactivity; filed as Kd, often an IC50 or EC50 that approximates it; bounds were set here for any values at or beyond the usual limits of such assays
Conditions: source organism: SARS coronavirus Tor2
measurement_label: Kd (nM)

| ordered_residues | experimental_target | units_label | value_relation_sign | result |
| --- | --- | --- | --- | --- |
| YYFMKFRRVF | HLA-A*29:02 | nM | = | 2.8 |
| LKEPCPSGTY | HLA-A*29:02 | nM | = | 1560 |
| NTCDGNTFTY | HLA-A*29:02 | nM | ≥ | 26000 |
| PVDEYITTY | HLA-A*29:02 | nM | = | 544 |
| PYPDPSRIL | HLA-A*29:02 | nM | ≥ | 35900 |
| NMLRIMASL | HLA-A*29:02 | nM | ≥ | 36900 |

====

Molecular target: HLA-B*83:01
Assay: IEDB peptide-MHC binding, purified MHC/competitive/fluorescence; filed as Kd, often an IC50 or EC50 that approximates it; bounds were set here for any values at or beyond the usual limits of such assays
Details: source organism: Mycosarcoma maydis
pKd: −log10 of the molar value.

| ordered_residues | pKd |
| --- | --- |
| IPVHPRHPY | 6.65 |

====

Target: HLA-B*35:01
Experiment: IEDB peptide-MHC binding, purified MHC/competitive/fluorescence; filed as Kd, often an IC50 or EC50 that approximates it; bounds were set here for any values at or beyond the usual limits of such assays
Conditions: source organism: Influenza A virus (A/Harbin/1/1988(H1N2))

| ordered_residues | Kd [pM] |
| --- | --- |
| LPFQNVHPV | 400 |

====

Target: HLA-A*68:02
Test: IEDB peptide-MHC binding, purified MHC/competitive/fluorescence; filed as Kd, often an IC50 or EC50 that approximates it; bounds were set here for any values at or beyond the usual limits of such assays
Conditions: source organism: Vibrio antiquarius

| ordered_residues | experimental_target | Kd |
| --- | --- | --- |
| FDLFGITLY | HLA-A*68:02 | ≥ 20 µM |

====

Molecular target: HLA-B*40:01
Test: IEDB peptide-MHC binding, purified MHC/competitive/radioactivity; filed as Kd, often an IC50 or EC50 that approximates it; bounds were set here for any values at or beyond the usual limits of such assays
Details: source organism: Dengue virus 2 Jamaica/1409/1983
measurement_label: Kd (nM)

| ordered_residues | measurement_label | result |
| --- | --- | --- |
| RERLSRMAI | Kd | 29.6 |

====

Target: HLA-A*32:07
Assay: IEDB peptide-MHC binding, purified MHC/competitive/fluorescence; filed as Kd, often an IC50 or EC50 that approximates it; bounds were set here for any values at or beyond the usual limits of such assays
Conditions: source organism: Mycobacterium tuberculosis str. Haarlem
pKd: −log10 of the molar value.

| ordered_residues | experimental_target | pKd |
| --- | --- | --- |
| YTPEQWWPF | HLA-A*32:07 | 7.64 |

====

Target: HLA-A*11:01
Assay: IEDB peptide-MHC binding, purified MHC/direct/fluorescence; filed as Kd, often an IC50 or EC50 that approximates it; bounds were set here for any values at or beyond the usual limits of such assays
Conditions: source organism: Escherichia coli O157:H7
measurement_label: Kd

| ordered_residues | measurement_label | result |
| --- | --- | --- |
| PSSKPDWFY | Kd | ≥ 20 µM |

====

Target: HLA-B*57:01
Experiment: IEDB peptide-MHC binding, purified MHC/direct/fluorescence; filed as Kd, often an IC50 or EC50 that approximates it; bounds were set here for any values at or beyond the usual limits of such assays
Conditions: source organism: Francisella tularensis subsp. holarctica LVS

| ordered_residues | Kd [µM] |
| --- | --- |
| ISTHIGFSF | 0.125 |

====

Biological target: HLA-A*69:01
Assay: IEDB peptide-MHC binding, purified MHC/competitive/fluorescence; filed as Kd, often an IC50 or EC50 that approximates it; bounds were set here for any values at or beyond the usual limits of such assays
Details: source organism: Zaire ebolavirus
pKd: −log10 of the molar value.
measurement_label: pKd

| ordered_residues | result |
| --- | --- |
| KLWTSISCA | ≤ 4.70 |

====

Target: HLA-A*03:01
Experiment: IEDB peptide-MHC binding, purified MHC/competitive/radioactivity; filed as Kd, often an IC50 or EC50 that approximates it; bounds were set here for any values at or beyond the usual limits of such assays
Conditions: source organism: SARS coronavirus Tor2
pKd: −log10 of the molar value.
Just so you know, the groups by pKd go like this: lower level = under 6, middle level = from 6 up to 7, upper level = 7 and over

| ordered_residues | experimental_target | qualitative_label |
| --- | --- | --- |
| ALALLLLDR | HLA-A*03:01 | lower level |
| NTCDGNTFTY | HLA-A*03:01 | upper level |
| SQILPDPLK | HLA-A*03:01 | lower level |
| ALYEQVVMDY | HLA-A*03:01 | middle level |
| SFGGASCCLY | HLA-A*03:01 | middle level |
| MSLYMAISPK | HLA-A*03:01 | upper level |
| RAFDIYNEK | HLA-A*03:01 | upper level |
| QQQQGQTVTK | HLA-A*03:01 | lower level |
| TSFGPLVRK | HLA-A*03:01 | upper level |
| VVMDYLDNLK | HLA-A*03:01 | lower level |
| VTGLFKDCSK | HLA-A*03:01 | lower level |

Origin of the recorded values: the Immune Epitope Database (IEDB)
